Recorded values, source ChEMBL document CHEMBL1806349.

- testDescription: AUC (0 to 24 hrs) in iv dosed Crl:CD(SD) rat
- Type: ADME, organism-based
- Set-up: time < 24 hr, route intravenous
- testSettings: plasma
Assignment: determine reported AUC(0-t) at 24 h for the given compounds.
Remember to follow the number with its unit.

For the compound shown here, CCCCCCCCCCCCCCCCCC(=O)OCC(CO[P+]([O-])(O)OCCNC(=O)CCC(=O)N(CC(=O)N(CC(=O)NC(COC(CO)CO)COC(CO)CO)CC(=O)NC(COC(CO)CO)COC(CO)CO)CC(=O)N(CC(=O)NC(COC(CO)CO)COC(CO)CO)CC(=O)NC(COC(CO)CO)COC(CO)CO)OC(=O)CCCCCCCCCCCCCCCCC (configuration not stated) , give the reported AUC(0-t) at 24 h. 53100 ng·h/mL

Give the measured AUC(0-t) at 24 h of CCCCCCCCCCCCCCCCCC(=O)OCC(CO[P+]([O-])(O)OCCNC(=O)CCC(=O)N(CC(=O)NC(COC(COC(CO)CO)COC(CO)CO)COC(COC(CO)CO)COC(CO)CO)CC(=O)NC(COC(COC(CO)CO)COC(CO)CO)COC(COC(CO)CO)COC(CO)CO)OC(=O)CCCCCCCCCCCCCCCCC (configuration not stated) . 95100 ng·h/mL

====

- testDescription: Solubility of the compound in water
- Assay type: physicochemical
For each of the molecules below, state its solubility.
Reply with the number and its unit after it.

Any idea what solubility was measured for O=C(CCC(=O)NC(COC(CO)CO)COC(CO)CO)NCCCCCCCCNC(=O)c1ccccc1 ? 350 mM

Requested read-out: solubility. Entry: O=C(CCC(=O)N(CC(=O)NC(CO)CO)CC(=O)NC(CO)CO)NCCCCCCCCNC(=O)c1ccccc1 21 mM
